Recorded Relative to UNC0638 Average by entry
Target: T1, G9a and GLP (Homo sapiens, UniProt Q96KQ7+Q9H9B1)
T1 sequence (Q96KQ7 2-1210 limits assumed): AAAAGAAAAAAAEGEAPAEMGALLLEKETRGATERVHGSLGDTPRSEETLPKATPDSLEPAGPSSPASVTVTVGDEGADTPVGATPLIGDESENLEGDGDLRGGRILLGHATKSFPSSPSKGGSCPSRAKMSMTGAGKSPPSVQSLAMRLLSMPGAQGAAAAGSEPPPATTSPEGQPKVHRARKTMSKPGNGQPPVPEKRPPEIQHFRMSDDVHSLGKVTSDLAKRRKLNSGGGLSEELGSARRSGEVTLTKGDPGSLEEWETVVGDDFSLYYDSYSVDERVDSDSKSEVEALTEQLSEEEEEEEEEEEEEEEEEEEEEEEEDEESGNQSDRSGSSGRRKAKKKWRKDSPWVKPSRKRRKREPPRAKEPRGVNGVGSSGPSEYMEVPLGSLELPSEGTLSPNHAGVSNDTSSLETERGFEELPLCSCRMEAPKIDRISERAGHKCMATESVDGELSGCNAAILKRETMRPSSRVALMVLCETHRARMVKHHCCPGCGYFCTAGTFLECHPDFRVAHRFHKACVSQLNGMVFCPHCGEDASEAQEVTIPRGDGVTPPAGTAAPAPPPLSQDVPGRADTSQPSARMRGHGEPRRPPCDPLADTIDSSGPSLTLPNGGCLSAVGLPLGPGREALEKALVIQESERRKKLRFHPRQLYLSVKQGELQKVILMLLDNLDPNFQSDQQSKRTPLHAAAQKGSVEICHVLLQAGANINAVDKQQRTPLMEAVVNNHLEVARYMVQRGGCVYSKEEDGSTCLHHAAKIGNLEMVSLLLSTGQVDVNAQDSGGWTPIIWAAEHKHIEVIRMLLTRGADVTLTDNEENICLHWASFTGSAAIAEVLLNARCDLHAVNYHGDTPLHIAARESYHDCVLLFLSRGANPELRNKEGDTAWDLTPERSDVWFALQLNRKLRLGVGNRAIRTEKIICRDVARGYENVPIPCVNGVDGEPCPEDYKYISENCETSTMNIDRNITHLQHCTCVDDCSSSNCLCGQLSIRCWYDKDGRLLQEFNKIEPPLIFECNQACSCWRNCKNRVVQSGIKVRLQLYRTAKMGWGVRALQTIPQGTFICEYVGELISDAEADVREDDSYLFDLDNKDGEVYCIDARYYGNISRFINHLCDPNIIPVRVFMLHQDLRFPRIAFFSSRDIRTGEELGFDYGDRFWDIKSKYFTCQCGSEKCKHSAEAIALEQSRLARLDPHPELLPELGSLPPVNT
T1 sequence (Q9H9B1 2-1298 limits assumed): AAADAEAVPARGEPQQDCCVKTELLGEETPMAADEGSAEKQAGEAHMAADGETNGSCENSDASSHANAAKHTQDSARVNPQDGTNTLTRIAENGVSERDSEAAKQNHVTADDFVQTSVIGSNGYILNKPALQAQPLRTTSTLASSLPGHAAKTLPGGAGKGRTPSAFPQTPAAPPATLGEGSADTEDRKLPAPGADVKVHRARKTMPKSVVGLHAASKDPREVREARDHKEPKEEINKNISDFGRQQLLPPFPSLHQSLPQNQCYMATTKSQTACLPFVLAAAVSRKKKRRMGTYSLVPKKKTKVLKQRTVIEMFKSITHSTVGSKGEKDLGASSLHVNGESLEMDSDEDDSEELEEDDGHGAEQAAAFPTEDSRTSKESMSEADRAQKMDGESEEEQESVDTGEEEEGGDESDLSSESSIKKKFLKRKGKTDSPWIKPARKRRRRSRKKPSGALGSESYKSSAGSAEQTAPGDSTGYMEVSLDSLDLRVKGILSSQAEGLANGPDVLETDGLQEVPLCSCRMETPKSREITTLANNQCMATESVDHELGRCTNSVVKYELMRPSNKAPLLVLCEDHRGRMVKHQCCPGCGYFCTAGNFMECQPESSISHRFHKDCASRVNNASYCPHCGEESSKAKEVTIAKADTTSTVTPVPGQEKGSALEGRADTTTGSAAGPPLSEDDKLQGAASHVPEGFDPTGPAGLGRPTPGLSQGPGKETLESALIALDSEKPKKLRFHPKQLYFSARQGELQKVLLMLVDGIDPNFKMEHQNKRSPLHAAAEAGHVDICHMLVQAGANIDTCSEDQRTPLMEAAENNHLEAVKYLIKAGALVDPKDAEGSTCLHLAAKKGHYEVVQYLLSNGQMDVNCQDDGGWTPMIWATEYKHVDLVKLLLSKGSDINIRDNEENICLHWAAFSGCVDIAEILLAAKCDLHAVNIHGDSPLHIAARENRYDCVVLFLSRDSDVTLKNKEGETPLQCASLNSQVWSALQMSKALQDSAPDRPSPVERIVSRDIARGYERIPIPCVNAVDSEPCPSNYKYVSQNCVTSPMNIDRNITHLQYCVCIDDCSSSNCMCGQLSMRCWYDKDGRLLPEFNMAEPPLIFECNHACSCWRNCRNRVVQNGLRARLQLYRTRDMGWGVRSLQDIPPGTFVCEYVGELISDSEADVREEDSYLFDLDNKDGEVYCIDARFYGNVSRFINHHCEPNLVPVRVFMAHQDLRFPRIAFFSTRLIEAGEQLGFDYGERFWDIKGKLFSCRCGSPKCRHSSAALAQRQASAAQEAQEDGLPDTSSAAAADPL
Assay: Triple SILAC pull-down after UNC0638 treatment of 293T cells, DMSO/UNC0638 ratio of protein captured by 3×MBT;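 note: mass spectrometry (Q-Exactive) SILAC quantitation, DMSO/UNC0638 ratio computed after subtracting 3×MBTD355N mutant pull-down background, only proteins with at least twofold 3×MBT over mutant signal considered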
Format: cell-based
Design: endogenous in cells; host or cells: HEK 293T
Settings: average of UNC Light and UNC Heavy experiments
Respond with the bare value in log base 2.

EEF1D (protein, UniProt P29692 2-281, looked up) Elongation factor 1-delta: ATNFLAHEKIWFDKFKYDDAERRFYEQMNGPVAGASRQENGASVILRDIARARENIQKSLAGSSGPGASSGTSGDHGELVVRIASLEVENQSLRGVVQELQQAISKLEARLNVLEKSSPGHRATAPQTQHVSPMRQVEPPAKKPATPAEDDEDDDIDLFGSDNEEEDKEAAQLREERLRQYAEKKAKKPALVAKSSILLDVKPWDDETDMAQLEACVRSIQLDGLVWGASKLVPVGYGIRKLQIQCVVEDDKVGTDLLEEEITKFEEHVQSVDIAAFNKI = 0.15
HN1L (protein, UniProt Q9H910 1-190, looked up) Jupiter microtubule …: MFQVPDSEGGRAGSRAMKPPGGESSNLFGSPEEATPSSRPNRMASNIFGPTEEPQNIPKRTNPPGGKGSGIFDESTPVQTRQHLNPPGGKTSDIFGSPVTATSRLAHPNKPKDHVFLCEGEEPKSDLKAARSIPAGAEPGEKGSARKAGPAKEQEPMPTVDSHEPRLGPRPRSHNKVLNPPGGKSSISFY = 0.70

Could you now consider this next molecule?
Specify reported Relative to UNC0638 Average for the molecule shown: TXN (protein, UniProt P10599 2-105, looked up) Thioredoxin: VKQIESKTAFQEALDAAGDKLVVVDFSATWCGPCKMIKPFFHSLSEKYSNVIFLEVDVDDCQDVASECEVKCMPTFQFFKKGQKVGEFSGANKEKLEATINELV
0.26
